target of assay: T1, murine IL-11 (mouse, UniProt P47873 22-199)
T1 sequence: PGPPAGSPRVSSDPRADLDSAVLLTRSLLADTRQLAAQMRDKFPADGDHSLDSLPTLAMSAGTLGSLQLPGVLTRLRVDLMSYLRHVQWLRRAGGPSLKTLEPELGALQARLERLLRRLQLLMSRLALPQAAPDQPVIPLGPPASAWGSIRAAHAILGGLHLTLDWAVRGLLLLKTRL
test description: cell-based or functional assay
// classify: if (IC50, RGA 2 < 20 nM) Satisfied else Not satisfied

Consider the worked cases shown below.
{"binder": "TPP-31297 (antibody, IgG4, V domains shown) VH: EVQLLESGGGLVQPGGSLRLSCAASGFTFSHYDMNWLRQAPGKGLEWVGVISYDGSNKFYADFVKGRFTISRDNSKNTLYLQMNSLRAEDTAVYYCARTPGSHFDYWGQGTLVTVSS VL: QSVLTQPPSASGTPGQRVTISCSGSSSNIGNNAVNWYQQLPGTAPKLLIYYDDLLPSGVPDRFSGSKSGTSASLAISGLRSEDEADYYCSAWDDSLQGVVFGGGTKLTVL", "category label": "Satisfied"}
{"binder": "TPP-31296 (antibody, IgG4, V domains shown, hIgG4 SPLE, lambda) VH: EVQLLESGGGLVQPGGSLRLSCAASGFTFSHYDMNWLRQAPGKGLEWVGVISYDGSNKFYADSVKGRFTISRDNSKNTLYLQMNSLRAEDTAVYYCARTPGSHFDYWGQGTLVTVSS VL: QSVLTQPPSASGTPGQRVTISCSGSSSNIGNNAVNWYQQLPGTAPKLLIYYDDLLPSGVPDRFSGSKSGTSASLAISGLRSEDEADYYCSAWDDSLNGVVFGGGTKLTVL", "category label": "Not satisfied"}

Below 20 nM on IC50, RGA 2? Entry TPP-31292 (antibody, IgG4, V domains shown, hIgG4 SPLE, lambda) VH: EVQLLESGGGLVQPGGSLRLSCAASGFTFSHYDMHWLRQAPGKGLEWVGVISYDGSNKFYADFVKGRFTISRDNSKNTLYLQMNSLRAEDTAVYYCARTPGSHFDYWGQGTLVTVSS VL: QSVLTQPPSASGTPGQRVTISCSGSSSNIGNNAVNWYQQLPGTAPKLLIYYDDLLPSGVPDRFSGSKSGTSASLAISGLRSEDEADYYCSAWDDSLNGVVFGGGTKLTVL Not satisfied

Now give it for TPP-31305 (antibody, IgG4, V domains shown) VH: EVQLLESGGGLVQPGGSLRLSCAASGFTFSHYDMNWLRQAPGKGLEWVGVISYDASNKFYADFVKGRFTISRDNSKNTLYLQMNSLRAEDTAVYYCARTPGSHFDYWGQGTLVTVSS VL: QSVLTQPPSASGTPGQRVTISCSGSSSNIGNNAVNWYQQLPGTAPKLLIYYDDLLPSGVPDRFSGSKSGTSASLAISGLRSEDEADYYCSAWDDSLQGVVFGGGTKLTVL too. Not satisfied

Now give it for TPP-31295 (antibody, IgG4, V domains shown) VH: EVQLLESGGGLVQPGGSLRLSCAASGFTFSHYDMNWLRQAPGKGLEWVGVISYDGSNKYYADFVKGRFTISRDNSKNTLYLQMNSLRAEDTAVYYCARTPGSHFDYWGQGTLVTVSS VL: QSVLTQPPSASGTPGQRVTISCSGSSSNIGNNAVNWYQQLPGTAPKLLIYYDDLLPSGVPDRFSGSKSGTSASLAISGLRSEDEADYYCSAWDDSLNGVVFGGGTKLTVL too. Not satisfied

Sourced from patent US20240317847A1
